Attribution: patent US20150119254

Test system: VEGF-165 (Homo sapiens), P15692-4
Sequence: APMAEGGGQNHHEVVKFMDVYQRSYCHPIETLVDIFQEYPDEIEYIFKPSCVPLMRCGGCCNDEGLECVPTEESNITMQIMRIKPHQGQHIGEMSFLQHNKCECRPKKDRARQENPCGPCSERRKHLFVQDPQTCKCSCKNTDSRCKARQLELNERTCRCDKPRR
Assay: SPR
Settings: Ds at n; retention 32%
pKd: −log10 of the molar value.
readout-name: pKd

TGTCTAAGTANGGTGGGNTTGGCGGGGATGTCGGA [Ds-09-1-DsDsA]	< 7.00

====

Molecular target: IFN-gamma (UniProt P01579)
Sequence: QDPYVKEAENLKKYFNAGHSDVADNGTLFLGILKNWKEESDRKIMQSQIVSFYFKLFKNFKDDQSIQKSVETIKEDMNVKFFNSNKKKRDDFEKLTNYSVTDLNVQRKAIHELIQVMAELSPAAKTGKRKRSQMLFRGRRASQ
Experiment: SPR
Details: Ds at n; Bound 0.72 (Table 13); 25 C
pKd: −log10 of the molar value.
readout-name: pKd

ATCAGTCCACTCGGGTCGTTTANTAATGTAGGTNTGGGCTAGGCNGCTAGTGGATG [IF07bDs-57]	8.70

====

Test system: VEGF-165 (Homo sapiens), P15692-4
Sequence: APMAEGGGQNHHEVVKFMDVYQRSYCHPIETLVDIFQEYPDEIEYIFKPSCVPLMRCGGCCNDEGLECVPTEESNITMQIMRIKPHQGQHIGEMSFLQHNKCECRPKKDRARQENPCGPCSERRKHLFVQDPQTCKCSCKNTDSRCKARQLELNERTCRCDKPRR
Test: SPR
Conditions: Ds at n; retention 33%
readout-name: Kd

TGTCTAAGTANGGTGGGATTGGCGGGGNTGTCGGA [Ds-09-1-DsADs]	> 100 nM

====

pKd: recorded values
Molecular target: IFN-gamma (UniProt P01579)
Sequence: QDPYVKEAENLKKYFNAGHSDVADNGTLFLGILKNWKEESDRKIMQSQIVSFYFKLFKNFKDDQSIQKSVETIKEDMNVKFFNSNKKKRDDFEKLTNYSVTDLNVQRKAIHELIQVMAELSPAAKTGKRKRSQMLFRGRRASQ
Experiment: SPR
Details: Ds at n; 205 mM NaCl, 25 C
pKd: −log10 of the molar value.
readout-name: pKd

TCGGGTCATTTANTAATGTAGGTATGGGCTAGGCNGCTAGTGGAT [IFd1-DsADs-45]	6.90
TGACCTCGGGTCATTTANTAATGTAGGTNTGGGCTAGGCNGCTAGGTCA [IFd1-3Ds-49b]	8.96
TCGGGTCATTTANTAATGTAGGTNTGGGCTAGGCNGCTAGTGGAT [IFd1-3Ds-45]	7.82
